experiment: refractive index (Na D-line) (dimensionless); mn = molality of the nth substance listed, in mol/kg; details: 303.15 K; 101 kPa; Liquid; Standard Abbe refractometry; m1 = 0.7
± gives the expanded uncertainty stated by the source.
compounds and their reported refractive index

[in] Identify measured refractive index associated with O=P([O-])([O-])O.[K+].[K+] [dipotassium hydrogen phosphate] + O
[out] 1.35 ± 0.0004

====

molecules and their reported mass density
assay: mn = molality of the nth substance listed, in mol/kg; settings: 303.15 K; 101 kPa; Liquid; Vibrating tube method; m1 = 0.3
Reply with just the number (in kg/m3).

Here are 5 molecules together with their reported answers.
>>> print(df.to_string())
                                   molecule     parameter  unit_abbreviation  observed_value
0  O=P([O-])(O)O.[Na+] [sodium dihydrogen phosphate] + O  mass density              kg/m3         1022.91
1  O=P([O-])(O)O.[K+] [monopotassium phosphate] + O  mass density              kg/m3         1025.15
2  O=P([O-])([O-])O.[Na+].[Na+] [disodium hydrogen phosphate] + O  mass density              kg/m3            1037
3  O=P([O-])([O-])[O-].[K+].[K+].[K+] [tripotassium phosphate] + O  mass density              kg/m3         1056.83
4  O=P([O-])([O-])[O-].[Na+].[Na+].[Na+] [trisodium phosphate] + O  mass density              kg/m3         1051.09

[in] Identify measured mass density associated with O=P([O-])([O-])O.[K+].[K+] [dipotassium hydrogen phosphate] + O
[out] 1040.03

[in] Identify measured mass density associated with O=P(O)(O)O [phosphoric acid] + O
[out] 1009.93

[in] Identify measured mass density associated with O=P([O-])(O)O.[Li+] [lithium dihydrogen phosphate] + O
[out] 1017.71
